These entries and their values trace back to patent US6358885B1.

Tested on: Japonica rice
ASSAY OVERVIEW: Test E paddy water application plant response rating 0 to 100
Type: in vivo, oryza sativa
EXPERIMENTAL PARAMETERS: Rate 16 g/ha; Flood; 0 to 100 scale; approx. 21 days
Recorded measurements of Japonica 1 plant response rating, one per entry

| ENTRY SMILES | SYSTEM | Japonica 1 plant response rating |
| --- | --- | --- |
| Fc1cc(Cl)c(OCCCl)cc1-c1nn2c(c1Cl)CCCC2 | Japonica rice | 0 |
| C#CCN1C(=O)COc2cc(F)c(-c3nn4c(c3Cl)CCCC4)cc21 | Japonica rice | 75 |
| COCN1C(=O)COc2cc(F)c(-c3nn4c(c3Cl)CCCC4)cc21 | Japonica rice | 75 |
| C=C(Cl)COc1cc(-c2nn3c(c2Cl)CCCC3)c(F)cc1Cl | Japonica rice | 10 |

###

Tested on: rice
ASSAY OVERVIEW: Test B preemergence/postemergence greenhouse plant response rating 0 to 10
Assay type: in vivo, Oryza sativa
EXPERIMENTAL PARAMETERS: Rate 200 g/ha, PREEMERGENCE; 0 to 10 scale
Quick reference: Plant response rating, Rice of the listed items.
MEASUREMENT KIND: Plant response rating, Rice

| COMPOUND | QUANTITATIVE READOUT |
| --- | --- |
| CC(=O)c1cc(-c2nn3c(c2Cl)CCCC3)c(F)cc1Cl [Compound 45] | 3 |
| CC(C)OC(=O)c1cc(-c2nn3c(c2Cl)CCCC3)c(F)cc1Cl [Compound 44] | 2 |
| C=CCN1C(=O)COc2cc(F)c(-c3nn4c(c3Br)CCCC4)cc21 [Compound 41] | 0 |
| CCC(=O)Oc1cc(-c2nn3c(c2Cl)CCCC3)c(F)cc1Cl [Compound 47] | 0 |
| COc1cc(-c2nn3c(c2Cl)CCCC3)c(F)cc1Cl [Compound 29] | 2 |
| Fc1cc(Cl)c(OCc2ccccc2)cc1-c1nn2c(c1Cl)CCCC2 [Compound 22] | 2 |
| C#CCOc1cc(-c2nn3c(c2Br)CCCC3)c(F)cc1Cl [Compound 26] | 3 |

###

System: barley
ASSAY OVERVIEW: Test C preemergence/postemergence greenhouse plant response rating 0 to 100
Type: in vivo, Hordeum vulgare
EXPERIMENTAL PARAMETERS: POSTEMERGENCE, 62 g/ha, 0 to 100 scale
The following compounds are shown together with reported Plant response rating Barley Igri values.
MEASUREMENT KIND: Plant response rating Barley Igri

| COMPOUND | QUANTITATIVE READOUT |
| --- | --- |
| CC(C)OC(=O)c1cc(-c2nn3c(c2Cl)CCCC3)c(F)cc1Cl | 40 |
| CC(C)N1C(=O)COc2cc(F)c(-c3nn4c(c3Cl)CCCC4)cc21 | 50 |
| CCN1C(=O)COc2cc(F)c(-c3nn4c(c3Cl)CCCC4)cc21 | 50 |
| Fc1cc(Cl)c(OCCCl)cc1-c1nn2c(c1Cl)CCCC2 | 40 |
| C#CC(C)N1C(=O)COc2cc(F)c(-c3nn4c(c3Cl)CCCC4)cc21 (stereo not drawn) | 40 |
| C#CCN1C(=O)COc2cc(F)c(-c3nn4c(c3Br)CCCC4)cc21 | 50 |
